Entries and their apparent KD of MS2 coat protein
test system: MS2 coat protein; assay: apparent KD of MS2 coat protein; designed switch direction (-1 OFF switch, 1 ON switch): 1; higher = weaker reporter binding; conditions: input ligand: FMN 200 uM
Write the value in µM as a bare number.

>  <RESIDUE SEQUENCE>
AGUAUACAUGAGGAUCACCCAUGUCAGUAACUGACAGGAUAUGCGUUGCAUCACUGUAAUGCAGAAGGGUCUUGUA [Same State 1 - Mod of JMF's solution 1] (Eterna round: R96, puzzle: Same State 1)

>  <UNITS LABEL>
µM

>  <apparent KD of MS2 coat protein>
0.138

$$$$

Memo: CCGGUUUAUGGAGGAUAUGGAGCCUUAUUGGCUCCAGAAGGCUAAUACAUGAGGAUCACCCAUGUUCCGGCGGUCAAUAGACCG [Eli NG1ss - 58] (Eterna round: R96, puzzle: Same State NG 1) , reported apparent KD of MS2 coat protein: 0.0239

---

Entries and their apparent KD of MS2 coat protein
test system: MS2 coat protein; assay: apparent KD of MS2 coat protein; designed switch direction (-1 OFF switch, 1 ON switch): -1; higher = weaker reporter binding; conditions: Eterna round: R95; input ligand: none
Write the value in nM as a bare number.

>  <RESIDUE SEQUENCE>
AAAAGAAGUGUUAGGAUAUGUGUAAGUAGAAAGACACAGAAGGAACAUGAGGAUCACCCAUGUGGCCAAAGAAC [Vesotila] (puzzle: Brourd's mod of Exclusion 4)

>  <ASSAY TARGET>
MS2 coat protein

>  <apparent KD of MS2 coat protein, nM>
13.6

$$$$
>  <RESIDUE SEQUENCE>
AGAUGGCGAGGAUAUACAUGAGGAUCACCCAUGUGAGAGAUUAGAGUGAGGAAGAAAAGUAGAAGGCGCUGUCA [Mat - Exclusion 3 - Mod of Salish D18] (puzzle: Exclusion 3)

>  <ASSAY TARGET>
MS2 coat protein

>  <apparent KD of MS2 coat protein, nM>
144

$$$$

Memo: AAAAAACAAGGAUAUACGAAGGAUGAUUAUCUUAAUUUUUGACAUGAGGAUCACCCAUGUAGAAGGUGUUAAAA [JR_Exclusion2_Sub008] (puzzle: Exclusion 2) , reported apparent KD of MS2 coat protein: 52.9

Memo: AGAGAGUCAGGAUAUCGAAGGGAGAGGAAAGGAGAGAGGGACGAGAAGGGACAUGAGGAUCACCCAUGUAGGUG [JR_Exclusion4)Sub016] (puzzle: Exclusion 4) , reported apparent KD of MS2 coat protein: 432

Memo: AGAUGUAGAUUCCGAUCCUACAUGAGGAUCACCCAUGUAGCUAGACGUGCGGGCGGCGCUCGUCGGACUACCAGUAG [salish99_TOv1_r3_096] (puzzle: Sensor v3, turn-off variant 1) , reported apparent KD of MS2 coat protein: 84.6

---

system: K4 kissing-loop RNA reporter; assay: apparent KD of K4 kissing-loop reporter; higher = weaker reporter binding; conditions: Eterna round: R107; input ligand: tryptophan 2.4 mM
RECORDED ENDPOINT: apparent KD of K4 kissing-loop reporter (nM)
Write the value in nM as a bare number.

Examples with their reported apparent KD of K4 kissing-loop reporter follow.
>  <RESIDUE SEQUENCE>
AAACUCAGUGAUGUUGAGUGGGAGCGGGAUACCAGAUCGCCCAUCAUCCCUUGGCAGCCCGAGCGUCAGAAUACAUUUCAUUUGC [theeternabot_sameState_KL_Theo_A_6]

>  <ASSAY TARGET>
K4 kissing-loop RNA reporter

>  <UNITS LABEL>
nM

>  <apparent KD of K4 kissing-loop reporter>
263

$$$$
>  <RESIDUE SEQUENCE>
CGCUUGGGUGCGGCCGCCACUAGAGCGUGACACGGGUCCCAAAAGGGUGCAGUGAUGUUGCAGCCUAGGACCGGGCACCUCUGGC [Beveesbe]

>  <ASSAY TARGET>
K4 kissing-loop RNA reporter

>  <UNITS LABEL>
nM

>  <apparent KD of K4 kissing-loop reporter>
167

$$$$
>  <RESIDUE SEQUENCE>
AUUACAUCUGAAAAGCUAGUGAUGUUAGCUCGAGGACCGGUACGGCCGCCACUCGCAUAGCGAGGCCAAGUCGCGGUUAACGGAG [theeternabot_exclusion_KL_Trp_A_4]

>  <ASSAY TARGET>
K4 kissing-loop RNA reporter

>  <UNITS LABEL>
nM

>  <apparent KD of K4 kissing-loop reporter>
83.3

$$$$
>  <RESIDUE SEQUENCE>
UUUGGUUUCUCGGCCGCCACUCGUUGGUAAUGGGCCUCAGGGAUAUAGUGAUGUUAUGUAAAGAAGAGGACCGGGAGAAGGAAGG [ExTryptoB.Dn]

>  <ASSAY TARGET>
K4 kissing-loop RNA reporter

>  <UNITS LABEL>
nM

>  <apparent KD of K4 kissing-loop reporter>
156

$$$$
>  <RESIDUE SEQUENCE>
GUAGCACUUGAUAGUGAUGUUAUCAAGGGCAAGGAUAUCAUCUCAAUGAGAAGGUGUCCUUGAUAACUGCUACGGGAAUAUCCCA [Omei KL FMN A Exc D v6]

>  <ASSAY TARGET>
K4 kissing-loop RNA reporter

>  <UNITS LABEL>
nM

>  <apparent KD of K4 kissing-loop reporter>
102

$$$$

Memo: AGGGCACUGGCGGCCGCCACUUUUCGUGCGAACCAAAGCUAGUGAUGUUGGCUCCCUAGUUGCAAAAGGACCGGGCCGUUCAUCU [theeternabot_sameState_KL_Trp_B_37] , reported apparent KD of K4 kissing-loop reporter: 211

Memo: CAUUCACGGCGAGUCGAAGUGAUGUUUCGGCGAGGACCGGUACGGCCGCCACUCGGAUAAAUAUAGCUUAUCACAUACACUUUCG [theeternabot_exclusion_KL_Trp_A_27] , reported apparent KD of K4 kissing-loop reporter: 132

Memo: UGACAUUGCUCAGAUACCAGACAUGAGCAUCAGCCAUGUGCCAAAACGUACUAAAUAAAUGUCCCUUGGCAGCUGAGCAAUGUCU [TheoBX 13] , reported apparent KD of K4 kissing-loop reporter: 61.3

Memo: UAUAGAAACGUCCUAUCAAUAAAAUGGGAAGGAGCGAGGAAGAACUCAGGUAGGUCGCCCAAUAACCUUAGUGAUGUUAAGGAAA [Version 1] , reported apparent KD of K4 kissing-loop reporter: 117

Memo: `GUGUAACGAGGAAACCUCGUUACACCCUCACGAGGACCGGUACGGCCGCCACUCGAGAGCUCGUGAGGAGUGAUGUUCCUCGUGA` , reported apparent KD of K4 kissing-loop reporter: 184

Memo: `GCCAGUGCACGAAGGAGCGCCGUGACAGGUUACUGCCUUGGGCAGUGAUGUUGCUCAAUCUGGCAGGUAGGUCGCGUGCACUGGC` , reported apparent KD of K4 kissing-loop reporter: 177

Memo: UGUUAUGUAUCAGGAUAUUAGUGAUGUUUGUUGAUGUUAGUGAUGUUGAUAUUUGUUUUAUGUAUUUAAGAAGGGAUUGAGAUGU [ooilmullin] , reported apparent KD of K4 kissing-loop reporter: 41.4

---

test system: K4 kissing-loop RNA reporter; experiment: apparent KD of K4 kissing-loop reporter; higher = weaker reporter binding; conditions: Eterna round: R107; input ligand: FMN 200 uM
Entries and their apparent KD of K4 kissing-loop reporter
Write the value in nM as a bare number.

Examples with their reported apparent KD of K4 kissing-loop reporter follow.
>  <RESIDUE SEQUENCE>
AAGGUCACUACUACAGUGAUGUUGUGGGAGCAGGAUAUGCAGAAAUGCAGAAGGGCUCGCUCCAAGUGACCGAAUGAAACAUUCA [Omei KL FMN A SS A v1]

>  <ASSAY TARGET>
K4 kissing-loop RNA reporter

>  <apparent KD of K4 kissing-loop reporter / nM>
1170

$$$$
>  <RESIDUE SEQUENCE>
UCGAUCGCUAGUGAUGUUGGUGUGCUACAUCGAGGACCGGUACGGCCGCCACUCGAGCCCGAGUAGAAGGGUGGGCUGCUAUGAA [theeternabot_sameState_KL_Trp_A_18]

>  <ASSAY TARGET>
K4 kissing-loop RNA reporter;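 further: bound reporter read as fluorescence of individual clusters on recovered sequencing chips by microscopy, with normalized cluster intensities fitted with a binding model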

>  <apparent KD of K4 kissing-loop reporter / nM>
1510

$$$$

Memo: AAUAAAAGAUGUUUAGGAAAGAAAAUGGAAGGAGCGUGCGAAAGCACAGGUAGGUCGCCAGUGAUGUUGGAACCUGAGCAUCAAA [#SwitchBubble 15 #K4Late] , reported apparent KD of K4 kissing-loop reporter: 827
